System: SW-620 colon
Assay: NCI-60 one-dose screen, 48 h
Details: 10 µM unless noted
Method: Growth inhibition of the SW-620 human tumor cell line is measured as a screen for anti-cancer activity. Cells are grown in 96 well plates and exposed to the test compound for 48 hours. Compounds are tested at a single concentration, which is 10^-5 M for most compounds. The reported endpoint is percent growth (GI% or GIPRCNT), where numbers from 0 - 100% represent growth inhibition, and numbers from -100% - 0 represent cell death. For example, a value of 40 represents 60% growth inhibition. […]
This is part of a sample that, as a whole, favours compounds with a hit. Of some 83,000 tested, about 20% had one in any assay. Calls of active or inactive are those of the source. The calls were made as follows: active = growth percent below 10; inactive = the rest.
Write down the outcome that applies. Available outcomes: 1 for active, 0 for inactive

See these solved cases before continuing.
{"compound": "CN(C)C(=O)OCc1nc2c(N3CCOCC3)nc(-c3ccccc3)nc2n1C", "target system": "SW-620 colon", "classification": 1}
{"compound": "COc1ccc(C(=O)/C=C/c2c(OC)cc(OC)cc2OC)c(OC)c1", "target system": "SW-620 colon", "classification": 0}
{"compound": "Clc1cc(Cl)cc(N2N=C(c3cccc(Nc4ccncc4)c3)CC2c2ccc3c(c2)OCO3)c1 (stereo not given)", "target system": "SW-620 colon", "classification": 1}

query: Tell me the recorded outcome of this test for C/C(=C(/c1ccccc1)c1ccc(OCC(O)CNCCN2CCOCC2)cc1)c1ccccc1 (stereo not given) .
result: 0

query: Tell me the recorded outcome of this test for O=C(Nc1ccc2ncnc(Nc3ccc(Oc4cccc(F)c4)c(Cl)c3)c2c1)c1ccc(CN2CCOCC2)cc1 .
result: 0
